RAMPO Score overview
Target: T1, His-tagged P3028 (human, also: His-tag, terminus and sequence not given here)
T1 construct: in solution at 0.5 ug/mL over the peptide cards; found with anti-His-tag antibody and rabbit anti-mouse peroxidase (rampo); also called PGE73; not shown: His-tag
T1 peptide: VFDEFKPLVEEPQNLIK
Experiment: PEPSCAN chip ELISA, His-P3028 in solution;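 further: score is the raw OD at 405 nm from peroxidase colour with ABTS, imaged by CCD camera before and after staining, with wells showing air bubbles set to zero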
No end group written: not given here.
Value type: RAMPO Score (rampo score)

1) KKLDTFFVKLSLFAER [SEQ ID NO 489]: 305
2) KKLDTFFVKLDLFTER [SEQ ID NO 474]: 322
3) KKLDTFFVKCSLFTER [SEQ ID NO 508]: 283
4) KKFDTFFVKLSLFTER [SEQ ID NO 286]: 393
5) KKLDTFFVKVSLFTER [SEQ ID NO 343]: 658
6) KKLDTFFVKLSLFPER [SEQ ID NO 383]: 551
7) EKLDTFFVKLSLFTER [SEQ ID NO 270]: 396
8) KKLDTFFVKLSTFTER [SEQ ID NO 358]: 437
9) KKLDTVFVKLSLFTER [SEQ ID NO 8]: 547
10) KKLDTFFVKLSLFTEV [SEQ ID NO 521]: 254
11) KKLDTFFVVLSLFTER [SEQ ID NO 523]: 248
12) KKLDDFFVKLSLFTER [SEQ ID NO 500]: 295
13) KKLDTFFVKLSLFRER [SEQ ID NO 33]: 264
14) KKKDTFFVKLSLFTER [SEQ ID NO 290]: 386
15) KKLDTFFVKLSYFTER [SEQ ID NO 475]: 320
16) KKLDTFFVKLSLMTER [SEQ ID NO 22]: 1190
17) KKLDTFMVKLSLFTER [SEQ ID NO 9]: 712
18) KKLDTFFVKLHLFTER [SEQ ID NO 18]: 535
19) KKLDTFFVKLSQFTER [SEQ ID NO 19]: 651
20) KKLDTFFVKKSLFTER [SEQ ID NO 506]: 285
21) KKLDTFFVKLALFTER [SEQ ID NO 477]: 318
22) KKLDTFFVNLSLFTER [SEQ ID NO 518]: 256
23) KKLDTFFVKLSLRTER [SEQ ID NO 371]: 502
24) SKLDTFFVKLSLFTER [SEQ ID NO 453]: 344
25) KKLDTFLVKLSLFTER [SEQ ID NO 320]: 517
26) KKLDTFFKKLSLFTER (also called P27; SCF 27) [SEQ ID NO 264]: 253
27) KKLDTFNVKLSLFTER [SEQ ID NO 443]: 348
28) KKGDTFFVKLSLFTER [SEQ ID NO 4]: 563
29) KKLDTFFVKLSLWTER [SEQ ID NO 375]: 430
30) KKPDTFFVKLSLFTER [SEQ ID NO 436]: 361
